assay: qHTS assay for identifying genotoxic compounds that show differential cytotoxicity against isogenic chicken DT40 cell lines with known DNA damage response pathways - wild type cell line (AID 743012); conditions: DT40 wild type chicken cells viability, CellTiter-Glo, 40 h; series mostly up to 68.4 µM; note: nearly all actives have a fitted effect of over 60% in size
Inconclusive results are not listed. The source made the active and inactive calls. Calls come from the whole dose curve; as a rule, active = well fitted cell-killing curve with a large enough effect in the repeat runs; inconclusive = weak or mixed curves, or effect the other way; inactive = no such curve, though single readings can be large or run the other way.
The reply should be one of these categories: active, inactive

(Q) Outcome logged for CCC(=O)O[C@](Cc1ccccc1)(c1ccccc1)[C@H](C)CN(C)C in this assay:
(A) active

(Q) Outcome logged for CC(=O)O[C@H]1C[C@H](O[C@H]2[C@@H](O)C[C@H](O[C@H]3[C@@H](O)C[C@H](OC4CC[C@@]5(C)C(CC[C@@H]6[C@@H]5CC[C@]5(C)[C@@H](C7=CC(=O)OC7)[C@@H](O)C[C@]65O)C4)O[C@@H]3C)O[C@@H]2C)O[C@H](C)[C@H]1O[C@@H]1O[C@H](CO)[C@@H](O)[C@H](O)[C@H]1O (stereo partly drawn) in this assay:
(A) active

(Q) Outcome logged for CN1C2CCC1CC(OC(c1ccccc1)c1ccc(Cl)cc1)C2 (stereo not drawn) in this assay:
(A) active

(Q) Outcome logged for CCC(=O)O[C@H]1[C@@H](N2CCCCC2)C[C@H]2[C@@H]3CC[C@H]4C[C@H](OC(C)=O)[C@@H](N5CCCCC5)C[C@]4(C)[C@H]3CC[C@@]21C in this assay:
(A) active

(Q) Outcome logged for CC[C@@H](O)C(C[C@@H](C)N(C)C)(c1ccccc1)c1ccccc1 in this assay:
(A) active

(Q) Outcome logged for O=C(O)c1ccccc1[O-].O=C(O)c1ccccc1[O-].[Zn+2] in this assay:
(A) inactive

(Q) Outcome logged for Cc1ccc2c(c1)[C@]13CCCC[C@@H]1[C@H](C2)N(C)CC3 in this assay:
(A) active

(Q) Outcome logged for CNC(C)[C@@H]1CC[C@@H](N)[C@@H](O[C@H]2[C@H](O)[C@@H](O[C@H]3OC[C@](C)(O)[C@H](NC)[C@H]3O)[C@H](N)C[C@@H]2N)O1 (stereo partly drawn) in this assay:
(A) inactive

----------
target: Acetylcholinesterase (Homo sapiens) (UniProt P22303); assay: Acetylcholinesterase (AChE) small molecule antagonists: fluorescence cell-based qHTS assay (AID 1347398); conditions: SH-SY5Y cells; AChE activity; series mostly up to 115 µM; note: nearly all actives have a fitted effect of over 50% in size
Sequence (P22303 whole entry, looked up): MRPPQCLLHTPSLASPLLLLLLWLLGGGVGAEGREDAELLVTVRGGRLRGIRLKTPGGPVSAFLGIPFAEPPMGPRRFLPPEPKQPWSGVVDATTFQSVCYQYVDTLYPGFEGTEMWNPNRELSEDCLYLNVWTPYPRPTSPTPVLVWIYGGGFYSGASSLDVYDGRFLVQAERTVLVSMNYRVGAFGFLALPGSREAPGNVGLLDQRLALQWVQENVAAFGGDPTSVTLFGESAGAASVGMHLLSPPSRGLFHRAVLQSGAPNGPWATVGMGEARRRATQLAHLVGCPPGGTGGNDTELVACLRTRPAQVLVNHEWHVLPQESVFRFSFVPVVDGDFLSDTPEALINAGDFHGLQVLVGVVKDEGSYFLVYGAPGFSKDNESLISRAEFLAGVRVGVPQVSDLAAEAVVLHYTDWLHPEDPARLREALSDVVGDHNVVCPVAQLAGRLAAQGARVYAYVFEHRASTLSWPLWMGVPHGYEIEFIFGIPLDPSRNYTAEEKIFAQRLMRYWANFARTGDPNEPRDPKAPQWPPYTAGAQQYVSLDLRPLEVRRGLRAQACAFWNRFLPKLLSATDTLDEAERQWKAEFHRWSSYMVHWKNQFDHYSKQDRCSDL
Results filed as inconclusive are left out. Activity calls are given as the source filed them. Calls follow the shape of the full dose curve.
The reply should be one of these categories: 1 (yes) = active, 0 (no) = inactive

(Q) Outcome logged for O=P(O)(O)Oc1ccccc1 in this assay:
(A) 0 (no)

(Q) Outcome logged for CC(=O)OCC(=O)[C@@]12OC(C)(C)O[C@@H]1C[C@H]1[C@@H]3C[C@H](F)C4=CC(=O)C=C[C@]4(C)[C@@]3(F)[C@@H](O)C[C@@]12C in this assay:
(A) 0 (no)

(Q) Outcome logged for CCc1ccc(C)nc1 in this assay:
(A) 0 (no)

(Q) Outcome logged for CCCN(CCc1cccs1)[C@H]1CCc2c(O)cccc2C1 in this assay:
(A) 1 (yes)

(Q) Outcome logged for CC1CNCC(C)O1 (centres undefined) in this assay:
(A) 0 (no)

(Q) Outcome logged for COC(=O)C(C)(C)C in this assay:
(A) 0 (no)

(Q) Outcome logged for CCCCCCCCCCCCCCCCCC[N+](C)(C)Cc1ccccc1 in this assay:
(A) 1 (yes)

(Q) Outcome logged for CN1CCCN=C1COC(=O)C(O)(c1ccccc1)C1CCCCC1 (centres undefined) in this assay:
(A) 0 (no)

(Q) Outcome logged for CCOC(=O)[C@@](C)(N)Cc1ccc(O)c(O)c1 in this assay:
(A) 0 (no)

(Q) Outcome logged for NCC1(Cc2noc(=O)[nH]2)CCCCC1 in this assay:
(A) 0 (no)

(Q) Outcome logged for Cn1cc(C(=O)[C@@H]2CCc3nc[nH]c3C2)c2ccccc21 in this assay:
(A) 0 (no)

(Q) Outcome logged for CCC(O)C(C)(C)C (centres undefined) in this assay:
(A) 0 (no)

(Q) Outcome logged for CCn1c(=O)c2c(nc(/C=C/c3ccc(OC)c(OC)c3)n2C)n(CC)c1=O in this assay:
(A) 0 (no)

(Q) Outcome logged for COCCOCCOCCOCCOC in this assay:
(A) 0 (no)

(Q) Outcome logged for CC(O)COC(C)(C)C (centres undefined) in this assay:
(A) 0 (no)

(Q) Outcome logged for OCCCc1cccnc1 in this assay:
(A) 0 (no)

(Q) Outcome logged for CCOc1ccccc1N in this assay:
(A) 0 (no)

(Q) Outcome logged for O=C(NCCO[N+](=O)[O-])c1cccnc1 in this assay:
(A) 0 (no)

(Q) Outcome logged for O=C1CCCc2c1cc1ccc3cccc4ccc2c1c34 in this assay:
(A) 0 (no)

(Q) Outcome logged for NS(=O)(=O)c1cc(C2(O)NC(=O)c3ccccc32)ccc1Cl (centres undefined) in this assay:
(A) 0 (no)

(Q) Outcome logged for O=C1OC(=O)c2cc([N+](=O)[O-])ccc21 in this assay:
(A) 0 (no)

(Q) Outcome logged for NNC(=O)CCCCC(=O)NN in this assay:
(A) 0 (no)

(Q) Outcome logged for CCCCCCCCCCCl in this assay:
(A) 0 (no)

(Q) Outcome logged for C=CCN1CCc2nc(N)sc2CC1 in this assay:
(A) 0 (no)

(Q) Outcome logged for Oc1c(Br)cc(Br)c2cccnc12 in this assay:
(A) 0 (no)

(Q) Outcome logged for O=C(O)/C=C/c1ccc(/C=C/C(=O)O)cc1 in this assay:
(A) 0 (no)

(Q) Outcome logged for Cc1ccc(Cl)cc1Cl in this assay:
(A) 0 (no)

(Q) Outcome logged for O=C(O)C1(C(=O)Nc2ccc(Cl)cc2Cl)CC1 in this assay:
(A) 0 (no)

(Q) Outcome logged for Cc1ccc(=O)n(-c2ccccc2)c1 in this assay:
(A) 0 (no)

(Q) Outcome logged for C1COC1 in this assay:
(A) 0 (no)

(Q) Outcome logged for NC(=S)N/N=C/c1cccnc1 in this assay:
(A) 0 (no)

(Q) Outcome logged for O=C(O)c1cccc(Cl)n1 in this assay:
(A) 0 (no)

(Q) Outcome logged for O=CC1CC1 in this assay:
(A) 0 (no)

(Q) Outcome logged for CN1CCCC1 in this assay:
(A) 0 (no)

(Q) Outcome logged for Cc1cc(-n2nc3ccc(Cl)cc3n2)c(O)c(C(C)(C)C)c1 in this assay:
(A) 0 (no)

(Q) Outcome logged for Cc1cc(C)c(O)c(C(C)(C)C)c1 in this assay:
(A) 0 (no)

(Q) Outcome logged for COc1ccc(OC(=O)N(CC(=O)O)Cc2ccc(OCCc3nc(-c4ccccc4)oc3C)cc2)cc1 in this assay:
(A) 0 (no)

(Q) Outcome logged for CC1(C)CCC[C@]2(C)[C@H]3CCO[C@]3(C)CC[C@@H]12 in this assay:
(A) 0 (no)

(Q) Outcome logged for CC(C)(C)CC(C)(C)c1ccc(OCCO)cc1 in this assay:
(A) 0 (no)

(Q) Outcome logged for C[C@H]1O[C@@H](O[C@H]2CC[C@@]3(C)[C@H](CC[C@@H]4[C@@H]3C[C@@H](O)[C@]3(C)[C@@H](C5=CC(=O)OC5)CC[C@]43O)C2)C[C@H](O)[C@@H]1O[C@H]1C[C@H](O)[C@H](O[C@H]2C[C@H](O)[C@H](O[C@@H]3O[C@H](CO)[C@@H](O)[C@H](O)[C@H]3O)[C@@H](C)O2)[C@@H](C)O1 in this assay:
(A) 0 (no)

(Q) Outcome logged for c1ccc(-c2ccc(C(c3ccccc3)n3ccnc3)cc2)cc1 (centres undefined) in this assay:
(A) 0 (no)

(Q) Outcome logged for CCOC(=O)C(C)Oc1ccc(Oc2nc3ccc(Cl)cc3o2)cc1 (centres undefined) in this assay:
(A) 0 (no)

(Q) Outcome logged for CCCCCCCCCCCCCCCC in this assay:
(A) 0 (no)

(Q) Outcome logged for CC(=O)NO in this assay:
(A) 0 (no)

(Q) Outcome logged for CC(C)(C)N(CCO)CCO in this assay:
(A) 0 (no)

(Q) Outcome logged for CO[Si](C)(OC)c1ccccc1 in this assay:
(A) 0 (no)

(Q) Outcome logged for CN[C@H]1CC[C@@H](c2ccc(Cl)c(Cl)c2)c2ccc(S(N)(=O)=O)cc21 in this assay:
(A) 1 (yes)

(Q) Outcome logged for CC(C)CCOCc1ccccc1 in this assay:
(A) 0 (no)

(Q) Outcome logged for CCCCCCC(C)Nc1ccc(Nc2ccccc2)cc1 (centres undefined) in this assay:
(A) 0 (no)

(Q) Outcome logged for COC(=O)c1ccc(NC(C)=O)cc1OC in this assay:
(A) 0 (no)

(Q) Outcome logged for CC1(CO)CN(c2ccccc2)NC1=O (centres undefined) in this assay:
(A) 0 (no)

(Q) Outcome logged for Cc1c(C(=O)NN2CCCCC2)nn(-c2ccc(Cl)cc2Cl)c1-c1ccc(Cl)cc1 in this assay:
(A) 0 (no)

(Q) Outcome logged for CCCCC(CC)C(=O)OC(C)C (centres undefined) in this assay:
(A) 0 (no)

(Q) Outcome logged for CC(=O)Nc1ccc(S(=O)(=O)Cl)cc1 in this assay:
(A) 0 (no)
